Origin of the recorded values: PubChem BioAssay (NCI)

# Tested on: OVCAR-8 ovarian
# ASSAY COMMENT: NCI-60 one-dose screen, 48 h (100 = growth as untreated, 0 = no growth, -100 = all killed)
# CONDITION INFO: 10 µM unless noted
The panel holds about 83,000 compounds, 20% with a hit somewhere; the sample as a whole holds those more often. Active and inactive are the calls of the source. How the source made its calls: active means growth percent below 10; inactive means the rest.
Overview of reported growth across a group of compounds:

The recorded growth for entry O=C(NCCN1CCCC1)n1cc(-c2ccncc2)c(-c2cc(O)cc(Cl)c2)n1 equals 77.8% (inactive)

The recorded growth for entry CCCCCCCCCCCCCCCC1=NCCN1 equals 84.5% (inactive)

The recorded growth for entry O=C(O)CSc1ccc(NCc2oc(CO)cc(=O)c2O)cc1 equals 102% (inactive)

The recorded growth for entry COc1cc(C2CC(c3ccc(C)cc3)=NN2C=O)ccc1Oc1nc2c(c(=O)n(C)c(=O)n2C)n1C (stereo not given) equals 92.4% (inactive)

The recorded growth for entry C=CCOC(=O)C1=C(C)NC2=C(C(=O)CCC2)C1c1ccc(F)cc1 (stereo not given) equals 97% (inactive)
